- Tested on: Punta Toro virus
- assay-info: Antiviral activity against Punta Toro virus in Vero cells reduction of virus-induced cytopathogenicity after 4 days
- Format: functional, organism-based
- condition-description: 96 h
EC50 by entry:

# molecule, EC50
measured = [
    ("Nc1ncn(C[C@H]2COP(=O)(O)CO2)c(=O)n1", "> 200 µg/mL"),
    ("CCCCCCCCCCCCCCCCCCOP1(=O)CO[C@@H](Cn2cnc(N)nc2=O)CO1 (stereo partly drawn)", "> 8 µg/mL"),
    ("Nc1ncnc2c1ncn2C[C@H](O)CO [(S)-DHPA]", "> 200 µg/mL"),
]

----------
EC50 by entry:
- Tested on: Moloney murine sarcoma virus
- condition-description: C3H
measure: EC50

# given-smiles, result
data = [
    ("Nc1ccn(C[C@H]2COP(=O)(O)CO2)c(=O)n1", "> 20 µg/mL"),
    ("Nc1ccn(C[C@@H](CO)OCP(=O)(O)O)c(=O)n1.O.O", "> 4 µg/mL"),
    ("Nc1ncn(C[C@@H](CO)OCP(=O)(O)O)c(=O)n1", "≥ 4 µg/mL"),
    ("Nc1ncn(C[C@H]2COP(=O)(O)CO2)c(=O)n1", "> 20 µg/mL"),
]
